TARGET OF ASSAY: rat VAP-1 enzyme (SSAO) (Rattus norvegicus (Rat), UniProt O08590)
Sequence (O08590 whole entry): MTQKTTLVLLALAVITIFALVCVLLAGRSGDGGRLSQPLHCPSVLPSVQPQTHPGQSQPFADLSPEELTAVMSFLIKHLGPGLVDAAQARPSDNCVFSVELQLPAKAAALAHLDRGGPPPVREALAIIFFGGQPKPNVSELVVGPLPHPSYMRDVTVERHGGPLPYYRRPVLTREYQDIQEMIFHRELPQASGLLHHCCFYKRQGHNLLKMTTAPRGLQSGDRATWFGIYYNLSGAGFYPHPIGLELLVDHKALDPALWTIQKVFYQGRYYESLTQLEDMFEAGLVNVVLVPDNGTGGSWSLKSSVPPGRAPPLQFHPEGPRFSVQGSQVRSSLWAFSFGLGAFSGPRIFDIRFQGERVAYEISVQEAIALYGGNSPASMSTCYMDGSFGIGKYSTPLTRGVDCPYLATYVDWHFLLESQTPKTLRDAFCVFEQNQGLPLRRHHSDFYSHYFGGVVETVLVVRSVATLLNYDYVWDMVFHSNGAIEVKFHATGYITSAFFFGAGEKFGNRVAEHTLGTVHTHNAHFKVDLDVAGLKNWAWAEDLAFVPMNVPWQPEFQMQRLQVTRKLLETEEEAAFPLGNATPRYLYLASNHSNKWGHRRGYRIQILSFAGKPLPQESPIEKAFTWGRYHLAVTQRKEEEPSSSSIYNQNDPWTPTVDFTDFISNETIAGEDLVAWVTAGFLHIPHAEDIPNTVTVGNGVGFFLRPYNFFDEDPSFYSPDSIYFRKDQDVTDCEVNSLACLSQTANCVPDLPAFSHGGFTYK
Structures can show the parent of a compound that is named as a salt.
Entries and their measured pIC50 follow.
Please note pIC50 is a logarithmic value: minus log10 of concentration in mol/L. Answer with that number alone.

The recorded pIC50 for CC(=O)N1CCN(c2ccc(CCc3ccc(COC(=O)NN)cc3)nc2)CC1 [Production Example 108, trihydrochloride] is 9.10

The recorded pIC50 for CC(=O)N1CCN(c2ccc(CCc3ccc(CNC(=O)NN)cc3)nc2)CC1 [Production Example 109, trihydrochloride] is 8.85

Continuing:
The recorded pIC50 for CCCN(C)c1ccc(CCc2ccc(CC(=O)NN)cc2)cn1 [Production Example 90, trihydrochloride] is 8.85

The recorded pIC50 for NNC(=O)Cc1ccc(CCc2ccc(N3CCCCC3)nc2)cc1 [Production Example 45, trihydrochloride] is 8.92

The recorded pIC50 for "CC(=O)N1CCN(c2ccc(CCc3ccc(CCOC(=O)NN)s3)nc2)CC1" is 8.00

The recorded pIC50 for CC(=O)N1CCN(c2ccc(CCc3ccc(CCC(=O)NN)cc3)nc2)CC1 [Production Example 119, trihydrochloride] is 8.06

The recorded pIC50 for CC(=O)N1CCN(c2ccc(CCc3ccc(CC(=O)NN)cc3)nn2)CC1 [Production Example 99, trihydrochloride] is 8.60

The recorded pIC50 for CC(=O)N1CCN(c2ccc(CCc3ccc(OC(=O)NN)cc3)nc2)CC1 [Production Example 110, trihydrochloride] is 8.80

The recorded pIC50 for CCN(CC)c1ccc(CCc2ccc(CC(=O)NN)cc2)cn1 [Production Example 85, trihydrochloride] is 8.72

* * *

The next entries give measured pIC50 for UniProt:Q16853.
Where a name gives a salt, the structure may show the parent alone.
Please note pIC50 is a logarithmic value: minus log10 of concentration in mol/L. Answer with that number alone.

Reading of pIC50 for CC(=O)N1CCN(c2ccc(CCc3ccc(CNC(=O)NN)cc3)nc2)CC1 [Production Example 109, trihydrochloride] with UniProt:Q16853: 8.43

Reading of pIC50 for CCCN(C)c1ccc(CCc2ccc(CC(=O)NN)cc2)cn1 [Production Example 90, trihydrochloride] with UniProt:Q16853: 7.66

Reading of pIC50 for CC(=O)N1CCN(c2ccc(CCc3csc(CCC(=O)NN)c3)nc2)CC1 [Production Example 121, trihydrochloride] with UniProt:Q16853: 8.66

Reading of pIC50 for CCN(CC)c1ccc(CCc2ccc(CC(=O)NN)cc2)cn1 [Production Example 85, trihydrochloride] with UniProt:Q16853: 7.80

* * *

TARGET OF ASSAY: human VAP-1 enzyme (SSAO) (Homo sapiens (Human), UniProt Q16853)
Sequence (Q16853 whole entry): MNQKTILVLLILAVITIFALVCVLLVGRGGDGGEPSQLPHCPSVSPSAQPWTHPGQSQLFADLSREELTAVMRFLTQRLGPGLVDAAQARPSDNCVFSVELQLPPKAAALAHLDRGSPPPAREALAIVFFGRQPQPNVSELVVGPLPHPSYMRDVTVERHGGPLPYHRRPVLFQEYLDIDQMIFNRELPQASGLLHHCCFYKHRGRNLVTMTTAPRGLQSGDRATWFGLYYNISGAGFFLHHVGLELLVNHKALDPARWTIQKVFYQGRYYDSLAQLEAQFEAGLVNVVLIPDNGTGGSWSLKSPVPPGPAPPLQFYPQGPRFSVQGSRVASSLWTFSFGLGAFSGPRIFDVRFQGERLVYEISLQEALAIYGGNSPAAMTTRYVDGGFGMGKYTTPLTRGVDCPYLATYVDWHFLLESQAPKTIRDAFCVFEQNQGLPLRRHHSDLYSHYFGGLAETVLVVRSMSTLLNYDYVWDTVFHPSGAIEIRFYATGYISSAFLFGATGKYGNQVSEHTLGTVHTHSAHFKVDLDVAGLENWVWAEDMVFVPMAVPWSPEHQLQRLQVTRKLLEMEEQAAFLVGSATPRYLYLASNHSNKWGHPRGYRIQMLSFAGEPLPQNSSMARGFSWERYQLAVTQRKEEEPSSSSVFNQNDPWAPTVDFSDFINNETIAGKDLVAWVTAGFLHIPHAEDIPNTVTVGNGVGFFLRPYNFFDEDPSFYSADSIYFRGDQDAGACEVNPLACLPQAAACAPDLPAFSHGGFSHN
Where a name gives a salt, the structure may show the parent alone.
Entries and their measured log10 IC50 follow.
Answers are given as log10 of IC50 in nM.

The recorded log10 IC50 for NNC(=O)Cc1ccc(CCc2ccc(N3CCNCC3)cc2C(F)(F)F)cc1 [Production Example 59, trihydrochloride] is 1.05

The recorded log10 IC50 for CC(=O)N1CCN(c2ccc(CCc3ccc(CC(=O)NN)cc3)cn2)CC1 [Production Example 47, trihydrochloride] is 1.21

The recorded log10 IC50 for CC(=O)N1CCN(c2ccc(CCc3ccc(COC(=O)NN)cc3)nc2)CC1 [Production Example 108, trihydrochloride] is -0.05

The recorded log10 IC50 for CC(=O)N1CCN(c2cnc(CCc3ccc(CC(=O)NN)cc3)cn2)CC1 [Production Example 101, trihydrochloride] is 0.53

Continuing:
The recorded log10 IC50 for "NNC(=O)Cc1ccc(CCc2ccc(N3CCNCC3)cn2)cc1" is 0.99

The recorded log10 IC50 for NNC(=O)Cc1ccc(CCc2csc(C3CCNCC3)n2)cc1 [Production Example 20, dihydrochloride] is 1.37

The recorded log10 IC50 for NNC(=O)Cc1ccc(CCc2ccc(N3CCCC3)nc2)cc1 [Production Example 44, trihydrochloride] is 1.26

The recorded log10 IC50 for CC(=O)N1CCN(c2ccc(CCc3cccc(CNC(=O)NN)c3)nc2)CC1 [Production Example 112, trihydrochloride] is -0.15

Data provenance is patent US9603833B2.
